- system-name: GLP-1R (Homo sapiens, UniProt P43220)
- Construct: host or cells: GLP-1R CRE-bla CHO-K1 cells
- Sequence (P43220 24-463): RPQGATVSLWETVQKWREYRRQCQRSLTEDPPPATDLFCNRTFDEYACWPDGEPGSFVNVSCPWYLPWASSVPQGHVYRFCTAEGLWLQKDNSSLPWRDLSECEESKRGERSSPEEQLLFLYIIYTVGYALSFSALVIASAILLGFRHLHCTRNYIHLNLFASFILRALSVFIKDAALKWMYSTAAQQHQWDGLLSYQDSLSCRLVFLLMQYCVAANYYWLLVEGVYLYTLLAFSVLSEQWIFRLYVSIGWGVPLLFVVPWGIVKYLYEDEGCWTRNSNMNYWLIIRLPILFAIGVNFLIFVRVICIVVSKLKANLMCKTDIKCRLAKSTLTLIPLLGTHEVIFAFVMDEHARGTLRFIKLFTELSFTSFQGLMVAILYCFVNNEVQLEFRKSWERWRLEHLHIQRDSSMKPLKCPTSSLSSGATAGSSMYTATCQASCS
- Sequence (P01275 100-127 partner limits assumed): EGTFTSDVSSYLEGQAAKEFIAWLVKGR
- assay-protocol: EC20 GLP-1(9-36) PAM cAMP assay: dose response of compound in the presence of fixed concentration of GLP-1(9-36)
- Type: cell-based
- measurement-context: dose response of compound in presence of fixed concentration of GLP-1(9-36), GLP-1R CRE-bla CHO-K1 cells, read-out: EC20 GLP-1(9-36) PAM EC50
pEC50: −log10 of the molar value.
property: pEC50

compound	obs-value
CCCCCCCOc1ccc(-c2cnc(-c3ccc(C[C@H](NC(=O)c4ccc(C(C)(C)C)s4)C(=O)N4CCCC45CNC5)cc3)nc2)cc1	5.30 to 5.60
CCCCCCCOc1ccc(-c2cnc(-c3ccc(C[C@H](NC(=O)c4ccc(C(C)(C)C)s4)C(=O)NC(C(=O)O)C(O)c4cc(C)no4)cc3)nc2)cc1 (some centres unmarked)	> 6.10
CCCCOc1ccc(CC(=O)N[C@@H](Cc2ccc(-c3ncc(-c4ccc([C@H]5CC[C@H](CC)CC5)cc4)cn3)cc2)C(=O)N2CC(C(=O)O)C2)cc1	5.60 to 6.10
CCCCCCCOc1ccc(-c2cnc(-c3ccc(C[C@H](NC(=O)c4ccc(C5CC5)s4)C(=O)NC(C(=O)O)C(O)c4ccccc4)cc3)nc2)cc1 (some centres unmarked)	5.30 to 5.60
CCCCCCCOc1ccc(-c2cnc(-c3ccc(C[C@H](NC(=O)c4ccc(C(C)(C)C)s4)C(=O)NC4CC(C(=O)O)C4)cc3)nc2)cc1 (some centres unmarked)	> 6.10
CCCCCCCOc1ccc(-c2cnc(-c3ccc(C[C@H](NC(=O)c4ccc(CCC)s4)C(=O)N4CC[C@H](C(=O)O)C4)cc3)nc2)cc1	5.60 to 6.10
Cc1ccccc1-c1ccc(-c2cnc(-c3ccc(C[C@H](NC(=O)c4ccc(C(C)(C)C)s4)C(=O)N[C@H](C)C(=O)O)cc3)nc2)cc1	5.30 to 5.60
C[C@@H](NC(=O)[C@H](Cc1ccc(-c2ncc(-c3ccc(C(C)(C)C)cc3)cn2)cc1)NC(=O)c1ccc(C(C)(C)C)cc1)C(=O)O	5.30 to 5.60

What value of pEC50 has been reported for the following compound? "CCCCCCCOc1ccc(-c2cnc(-c3ccc(C[C@H](NC(=O)c4ccc(C(C)(C)C)s4)C(=O)N[C@@H](CCCN)C(=O)O)cc3)nc2)cc1"
5.60 to 6.10

# repeat for "CCCCCCCOc1ccc(-c2cnc(-c3ccc(C[C@H](NC(=O)c4ccc(C(C)(C)C)cc4)C(=O)N[C@@H](CC)C(=O)O)cc3)nc2)cc1"
> 6.10

# repeat for "CCCCCCCOc1ccc(-c2cnc(-c3ccc(C[C@H](NC(=O)c4ccc(C(C)(C)C)cc4)C(=O)N[C@@H](CC(=O)O)C(=O)N4CCOCC4)cc3)nc2)cc1"
5.60 to 6.10

# repeat for CCCCCCCOc1ccc(-c2cnc(-c3ccc(CC(NC(=O)c4ccc(C(C)(C)C)s4)C(=O)N[C@@H](CCCCN)C(=O)O)cc3)nc2)cc1 (some centres unmarked)
5.60 to 6.10

# repeat for "C[C@@H](NC(=O)[C@H](Cc1ccc(-c2ncc(-c3ccc(-c4ccc(OC(F)(F)F)cc4)cc3F)cn2)cc1)NC(=O)c1ccc(C(C)(C)C)s1)C(=O)O"
> 6.10

# repeat for "CC[C@H]1CC[C@H](c2ccc(-c3cnc(-c4ccc(C[C@H](NC(=O)c5ccc(CC(C)C)cc5)C(=O)N5CC(C(=O)O)C5)cc4)nc3)cc2)CC1"
> 6.10

# repeat for "CCCCCc1noc(-c2cnc(-c3ccc(C[C@H](NC(=O)c4ccc(C(C)(C)C)cc4)C(=O)NCCC(=O)O)cc3)nc2)n1"
5.30 to 5.60

# repeat for CCCCCCCOc1ccc(-c2cnc(-c3ccc(C[C@H](NC(=O)c4ccc(C(C)(C)C)cc4)C(=O)NC(CN(C)C)C(=O)O)cc3)nc2)cc1 (some centres unmarked)
5.60 to 6.10

# repeat for "CC(=O)c1ccccc1-c1ccc(-c2cnc(-c3ccc(C[C@H](NC(=O)c4ccc(C(C)(C)C)s4)C(=O)N4CC(C(=O)O)C4)cc3)nc2)c(F)c1"
5.60 to 6.10

# repeat for "CCCCCCCOc1ccc(-c2cnc(-c3ccc(C[C@H](NC(=O)c4ccc(C(C)(C)C)s4)C(=O)NC[C@H]4CCCN4C)cc3)nc2)cc1"
5.00 to 5.30

# repeat for CCCCCCCOc1ccc(-c2cnc(-c3ccc(C[C@H](NC(=O)c4ccc(C(C)(C)C)s4)C(=O)N4CC(C(=O)O)C(C)(C)C4)cc3)nc2)cc1 (some centres unmarked)
5.30 to 5.60

# repeat for CCCCCCCOc1ccc(-c2cnc(-c3ccc(C[C@H](NC(=O)c4ccc(C(C)(C)C)s4)C(=O)NC(C(=O)O)c4ccco4)cc3)nc2)cc1 (some centres unmarked)
> 6.10

###

- system-name: GLP-1R (Homo sapiens, UniProt P43220)
- Construct: host or cells: GLP-1R CRE-bla CHO-K1 cells
- assay-protocol: EC20 GLP-1(9-36) PAM cAMP assay: dose response of compound in the presence of fixed concentration of GLP-1(9-36)
- Format: cell-based
- measurement-context: GLP-1R CRE-bla CHO-K1 cells, compound dose response with fixed concentration of GLP-1(9-36), read-out: EC20 GLP-1(9-36) PAM EC50
pEC50: −log10 of the molar value.
property: pEC50

Examples with their reported pEC50 follow.
molecular-string	system-name	pEC50
CC[C@H]1CC[C@H](c2ccc(-c3cnc(-c4ccc(C[C@H](NC(=O)c5ccc(C(C)(C)C)s5)C(=O)O)cc4)nc3)c(F)c2)CC1	GLP-1R (Homo sapiens, UniProt P43220)	> 6.10
CC(C)Oc1ccc(-c2ccc(-c3cnc(-c4ccc(C[C@H](NC(=O)c5ccc(C(C)(C)C)s5)C(=O)N5CC(C(=O)O)C5)cc4)nc3)c(F)c2)cc1	GLP-1R (Homo sapiens, UniProt P43220)	> 6.10
CC(C)(C)c1ccc(C(=O)N[C@@H](Cc2ccc(-c3ncc(N4CCC(c5ccccc5Cl)CC4)cn3)cc2)C(=O)N2CC(C(=O)O)C2)s1	GLP-1R (Homo sapiens, UniProt P43220)	5.60 to 6.10

What value of pEC50 has been reported for the following molecule? "CCCCc1ccc(C2CN(c3cnc(-c4ccc(C[C@H](NC(=O)c5ccc(C(C)(C)C)s5)C(=O)N5CC(C(=O)O)C5)cc4)nc3)C2)cc1"
5.60 to 6.10

# repeat for "CC(C)(C)c1ccc(C(=O)N[C@@H](Cc2ccc(-c3ncc(-c4ccc(-c5ccc(C(F)(F)F)c(F)c5)cc4F)cn3)cc2)C(=O)N2CC(C(=O)O)C2)s1"
> 6.10

# repeat for "CC[C@H]1CC[C@H](c2ccc(-c3cnc(-c4ccc(C[C@H](NC(=O)c5ccc(C(C)C)cc5)C(=O)O)cc4)nc3)cc2)CC1"
> 6.10

###

- system-name: GLP-1R (Homo sapiens)
- Construct: host or cells: GLP-1R CRE-bla CHO-K1 cells
- assay-protocol: EC20 GLP-1(9-36) PAM cAMP assay: dose response of compound in the presence of fixed concentration of GLP-1(9-36)
- Format: cell-based
- measurement-context: dose response of compound in presence of fixed concentration of GLP-1(9-36), GLP-1R CRE-bla CHO-K1 cells, read-out: EC20 GLP-1(9-36) PAM EC50
pEC50: −log10 of the molar value.
property: pEC50

Examples with their reported pEC50 follow.
compound	system-name	property	obs-value
CCCCCCCOc1ccc(-c2cnc(-c3ccc(C[C@H](NC(=O)c4cnn(C(C)(C)C)c4)C(=O)NC(C(=O)O)C(O)c4ccccc4)cc3)nc2)cc1 (stereo partly drawn)	GLP-1R (Homo sapiens)	pEC50	5.60 to 6.10
CCc1ccc(-c2ccc(-c3cnc(-c4ccc(C[C@H](NC(=O)c5ccc(C(C)(C)C)s5)C(=O)N5CC(C(=O)O)C5)cc4)nc3)c(F)c2)cc1	GLP-1R (Homo sapiens)	pEC50	> 6.10
CC(C)(C)c1ccc(C(=O)N[C@@H](Cc2ccc(-c3ncc(-c4ccc(OC5CCCC5)cc4)cn3)cc2)C(=O)NCCC(=O)O)cc1	GLP-1R (Homo sapiens)	pEC50	5.30 to 5.60
CCCCCCCOc1ccc(-c2cnc(-c3ccc(C[C@H](NC(=O)c4ccc(C(C)(C)C)cc4C)C(=O)N4CC[C@H](C(=O)O)C4)cc3)nc2)cc1	GLP-1R (Homo sapiens)	pEC50	5.60 to 6.10
CCCCCCCOc1ccc(-c2cnc(-c3ccc(C[C@H](NC(=O)c4ccc(C(C)(C)C)cc4)C(=O)NCCC(=O)O)cc3)nc2)cc1OC	GLP-1R (Homo sapiens)	pEC50	5.00 to 5.30
CC(C)Sc1ccc(-c2cnc(-c3ccc(C[C@H](NC(=O)c4ccc(C(C)(C)C)s4)C(=O)N[C@H](C)C(=O)O)cc3)nc2)cc1	GLP-1R (Homo sapiens)	pEC50	5.60 to 6.10
CCCCCCCOc1ccc(-c2cnc(-c3ccc(C[C@H](NC(=O)c4ccc(C(C)(C)C)s4)C(=O)NCCN(C)C)cc3)nc2)cc1	GLP-1R (Homo sapiens)	pEC50	5.00 to 5.30
CCCCCCCOc1ccc(-c2cnc(-c3ccc(C[C@H](NC(=O)c4ccc(C(C)(C)C)s4)C(=O)N[C@H](CC)C(=O)O)cc3)nc2)cc1	GLP-1R (Homo sapiens)	pEC50	> 6.10

What value of pEC50 has been reported for the following compound? "CC(C)(C)c1ccc(C(=O)N[C@@H](Cc2ccc(-c3ncc(-c4ccc(OCCC5CCCC5)cc4)cn3)cc2)C(=O)N2CC(C(=O)O)C2)s1"
5.60 to 6.10

# repeat for "CCCCCCCOc1ccc(-c2cnc(-c3ccc(C[C@H](NC(=O)c4ccc(C(C)(C)C)s4)C(=O)N4CC(C(=O)NS(=O)(=O)CC(=O)OC)C4)cc3)nc2)cc1"
> 6.10

# repeat for CCCCCCCOc1ccc(-c2cnc(-c3ccc(C[C@H](NC(=O)c4ccc(C(F)(F)F)s4)C(=O)NC(C(=O)O)C(O)c4ccccc4)cc3)nc2)cc1 (stereo partly drawn)
5.30 to 5.60

# repeat for "C[C@@H](NC(=O)[C@H](Cc1ccc(-c2ncc(-c3ccc(OCC(C)(C)C)cc3)cn2)cc1)NC(=O)c1ccc(C(C)(C)C)cc1)C(=O)O"
5.60 to 6.10
